Target: DCN1-UBC12 interaction (Homo sapiens (Human), UniProt Q96GG9)
Sequence (Q96GG9 60-248 limits assumed): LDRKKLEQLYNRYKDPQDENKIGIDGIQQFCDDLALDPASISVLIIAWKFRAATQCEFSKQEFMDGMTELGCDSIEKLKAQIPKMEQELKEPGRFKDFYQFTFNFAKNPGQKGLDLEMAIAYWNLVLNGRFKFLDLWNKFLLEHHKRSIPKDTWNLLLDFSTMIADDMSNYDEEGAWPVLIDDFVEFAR
Assay: biochemical
Type: binding
Conditions: read-out: TR-FRET IC50
pIC50: −log10 of the molar value.
This section presents compounds with their documented pIC50 values.
experimental.endpoint: pIC50

# compound, study.system, assay.value
data = [
    ("CCCC(C)N1CCC(N(Cc2ccccc2)C(=O)Nc2cnc(Cl)nc2)CC1 (stereo not shown) [A241]", "DCN1-UBC12 interaction (Homo sapiens (Human), UniProt Q96GG9)", "< 4.28"),
    ("O=C(Nc1cc(F)cc(C(F)(F)F)c1)N(Cc1ccccc1)C1CCN(Cc2ccc(N3CCCC3)cc2)CC1 [A201]", "DCN1-UBC12 interaction (Homo sapiens (Human), UniProt Q96GG9)", "< 4.72"),
    ("CCCC(C)N1CCC(N(Cc2cccc(CNC(=O)CCl)c2)C(=O)Nc2cccc(C(F)(F)F)c2)CC1 (stereo not shown) [drawing 847]", "DCN1-UBC12 interaction (Homo sapiens (Human), UniProt Q96GG9)", "> 8.00"),
    ("CCCC(C)N1CCC(N(Cc2ccccc2)C(=O)Nc2cc(F)ccc2F)CC1 (stereo not shown) [A281]", "DCN1-UBC12 interaction (Homo sapiens (Human), UniProt Q96GG9)", "< 4.15"),
]
